biological target: human TRPA1 (Homo sapiens, UniProt O75762); construct: expressed in transfected cells; experiment: Cell-based functional intracellular calcium ([Ca2+]i) assay, Fluo-4/Fluo-8, FlexStation, challenge with reference TRPA1 agonist (FFA, AITC or 4-HNE); details: HEK293 cells expressing human TRPA1; IC50 class after addition of reference TRPA1 agonist (FFA, AITC or 4-HNE); read-out: human TRPA1-HEK Activity
Sequence (O75762 whole entry): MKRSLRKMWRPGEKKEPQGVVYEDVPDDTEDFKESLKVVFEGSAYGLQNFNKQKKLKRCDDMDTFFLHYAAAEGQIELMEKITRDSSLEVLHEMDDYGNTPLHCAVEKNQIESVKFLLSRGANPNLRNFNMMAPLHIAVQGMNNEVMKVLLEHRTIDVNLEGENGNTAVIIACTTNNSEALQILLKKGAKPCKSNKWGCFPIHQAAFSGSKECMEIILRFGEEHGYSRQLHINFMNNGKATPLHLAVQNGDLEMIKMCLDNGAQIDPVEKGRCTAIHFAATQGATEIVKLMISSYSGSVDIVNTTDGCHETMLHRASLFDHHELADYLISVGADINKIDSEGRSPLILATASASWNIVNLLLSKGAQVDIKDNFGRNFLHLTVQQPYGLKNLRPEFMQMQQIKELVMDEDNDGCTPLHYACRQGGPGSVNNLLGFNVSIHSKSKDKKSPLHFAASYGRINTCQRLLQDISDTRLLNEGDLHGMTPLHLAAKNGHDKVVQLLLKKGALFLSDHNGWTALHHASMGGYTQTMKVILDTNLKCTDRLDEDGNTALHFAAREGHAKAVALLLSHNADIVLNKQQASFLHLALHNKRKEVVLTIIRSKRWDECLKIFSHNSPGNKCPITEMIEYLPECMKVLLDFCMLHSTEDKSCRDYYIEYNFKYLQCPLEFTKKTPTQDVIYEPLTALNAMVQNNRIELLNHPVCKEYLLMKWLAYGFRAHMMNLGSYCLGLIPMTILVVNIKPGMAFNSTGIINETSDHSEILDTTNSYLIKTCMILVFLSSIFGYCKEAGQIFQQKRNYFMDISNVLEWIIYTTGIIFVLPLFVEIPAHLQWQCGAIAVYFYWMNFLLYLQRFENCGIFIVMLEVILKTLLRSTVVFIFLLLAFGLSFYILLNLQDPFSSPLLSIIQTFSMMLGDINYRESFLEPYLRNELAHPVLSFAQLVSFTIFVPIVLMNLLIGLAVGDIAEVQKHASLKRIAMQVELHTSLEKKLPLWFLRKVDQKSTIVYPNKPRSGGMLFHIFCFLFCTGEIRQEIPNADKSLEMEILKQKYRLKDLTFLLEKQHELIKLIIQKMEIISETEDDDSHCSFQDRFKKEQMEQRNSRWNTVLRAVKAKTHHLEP
pIC50: −log10 of the molar value.
outcome measure: pIC50

>>> print(df.to_string())
                                   compound                                    target  outcome_measure  readout_value
0  O=C(c1cc(-c2ccncc2)n(-c2ccccc2)n1)N1CCC2(CC1)C(=O)NCN2c1ccccc1 [Compound 8]  human TRPA1 (Homo sapiens, UniProt O75762)            pIC50   4.60 to 5.30
1  O=C1CSC2(CCN(C(=O)c3cc(-c4ccncc4)n(-c4ccc(C(F)(F)F)cc4)n3)CC2)N1 [Compound 68]  human TRPA1 (Homo sapiens, UniProt O75762)            pIC50         < 4.60
2  O=C(c1cc(-c2cccnc2)n(-c2ccc(I)cc2)n1)N1CCC2(CC1)C(=O)NCN2c1ccc(F)cc1 [Compound 246]  human TRPA1 (Homo sapiens, UniProt O75762)            pIC50   5.30 to 9.00
3  O=C(Nc1ccc2c(c1)OC(F)(F)O2)c1cc(-c2ccncc2)n(-c2ccc(C(F)(F)F)c(F)c2)n1 [Compound 109]  human TRPA1 (Homo sapiens, UniProt O75762)            pIC50         < 4.60
4  O=C(c1cc(-c2cccnc2)n(-c2cc(F)c(F)c(F)c2)n1)N1CCC2(CC1)C(=O)NCN2c1ccc(F)cc1F [Compound 257]  human TRPA1 (Homo sapiens, UniProt O75762)            pIC50         < 4.60

# lookup: pIC50 of O=C(c1cc(-c2cccnc2)n(-c2ccc(OC(F)(F)F)c(F)c2)n1)N1CCC2(CC1)C(=O)NCN2c1ccc(F)c(F)c1 [Compound 214]
5.30 to 9.00

# lookup: pIC50 of O=C(c1cc(-c2cccnc2)n(-c2ccc(C(F)(F)F)c(C(F)(F)F)c2)n1)N1CCC(n2c(=O)[nH]c3ccc(F)c(F)c32)CC1 [Compound 285]
5.30 to 9.00

----------
target: human TRPA1 (Homo sapiens); construct: expressed in transfected cells; experiment: Cell-based functional intracellular calcium ([Ca2+]i) assay, Fluo-4/Fluo-8, FlexStation, challenge with reference TRPA1 agonist (FFA, AITC or 4-HNE); conditions: HEK293 cells expressing human TRPA1; IC50 class after addition of reference TRPA1 agonist (FFA, AITC or 4-HNE); read-out: human TRPA1-HEK Activity
# key: entry, value: IC50

                         chemical_structure  readout_value
0  O=C(c1cc(-c2ccncc2)n(-c2ccc(F)cc2F)n1)N1CCC2(CC1)C(=O)NCN2c1ccccc1        > 25 µM
1  O=C1OC2(CCN(C(=O)c3cc(-c4ccncc4)n(-c4ccccc4)n3)CC2)c2ccccc21        > 25 µM
2  O=C(c1cc(-c2ccncc2)n(-c2ccc(F)c(F)c2)n1)N1CCN2C(=O)OC[C@@H]2C1        > 25 µM

As a next step, examine the molecule that follows.
# lookup: IC50 of "N#Cc1ccc2[nH]c(=O)n(C3CCN(C(=O)c4cc(-c5cccnc5)n(-c5ccc(C#N)c(F)c5)n4)CC3)c2c1"
0.001 to 5 µM

----------
# key: entry, value: pIC50
target: human TRPA1 (Homo sapiens); construct: expressed in transfected cells; assay: Cell-based functional intracellular calcium ([Ca2+]i) assay, Fluo-4/Fluo-8, FlexStation, challenge with reference TRPA1 agonist (FFA, AITC or 4-HNE); settings: HEK293 cells expressing human TRPA1; IC50 class after addition of reference TRPA1 agonist (FFA, AITC or 4-HNE); read-out: human TRPA1-HEK Activity
pIC50: −log10 of the molar value.

The examples below pair each entry with its known result.
                                   compound  readout_value
0  N#Cc1c(F)ccc2[nH]c(=O)n(C3CCN(C(=O)c4cc(-c5cccnc5)n(-c5ccc(C(F)(F)F)c(F)c5)n4)CC3)c12 [Compound 244]   4.60 to 5.30
1  O=C(c1cc(-c2cccnc2)n(-c2ccc(OC(F)(F)F)c(F)c2)n1)N1CCC(n2c(=O)[nH]c3ccc(F)c(F)c32)CC1 [Compound 215]   5.30 to 9.00
2  O=C(c1cc(-c2cccnc2)n(-c2ccc(C(F)(F)F)c(F)c2F)n1)N1CCC(n2c(=O)[nH]c3ccc(F)c(F)c32)CC1 [Compound 222]   5.30 to 9.00
3  O=C(c1cc(-c2cccnc2)n(-c2ccc(F)c(C(F)(F)F)c2)n1)N1CCC(N2Cc3ccc(F)cc3NC2=O)CC1 [Compound 290]   5.30 to 9.00
4  CN1C(=O)COc2cc(NC(=O)c3cc(-c4ccncc4)n(-c4cnccn4)n3)ccc21 [Compound 131]         < 4.60

# lookup: pIC50 of O=C(c1cc(-c2ccncc2)n(-c2ccc(F)c(F)c2)n1)N1CCC2(CC1)NCN(c1ccccc1)C2=O [Compound 95]
< 4.60

# lookup: pIC50 of O=C(c1cc(-c2ccncc2)n(-c2cnccn2)n1)N1CCC2(CC1)C(=O)NCN2c1ccccc1 [Compound 167]
4.60 to 5.30

# lookup: pIC50 of O=C(c1cc(-c2ccncc2)n(-c2ccc(C(F)(F)F)c(F)c2)n1)N1CCC2(CC1)C(=O)NCN2c1ccccc1 [Compound 161]
4.60 to 5.30

# lookup: pIC50 of CC1CC(n2c(=O)[nH]c3ccc(F)c(F)c32)CC(C)N1C(=O)c1cc(-c2cccnc2)n(-c2cc(F)c(F)c(F)c2)n1 (centres unmarked) [Compound 203]
< 4.60

# lookup: pIC50 of O=C(c1cc(-c2cccnc2)n(-c2ccc(C(F)(F)F)c(F)c2)n1)N1CCC2(CC1)C(=O)NCN2c1ccc(F)c(C(F)(F)F)c1 [Compound 187]
5.30 to 9.00

# lookup: pIC50 of O=C(c1cc(-c2cccnc2)n(-c2ccc(F)c(C(F)(F)F)c2)n1)N1CCC2(CC1)C(=O)NCN2c1ccc(OC(F)F)cc1 [Compound 283]
4.60 to 5.30

# lookup: pIC50 of O=C(c1cc(-c2ccncc2)n(-c2ccccc2)n1)N1CCN(c2cc(C(F)(F)F)cc(C(F)(F)F)c2)CC1 [Compound 33]
< 4.60

# lookup: pIC50 of CN1C(=O)NC2(CCN(C(=O)c3cc(-c4ccncc4)n(-c4ccc(F)c(F)c4)n3)CC2)C1=O [Compound 97]
< 4.60

# lookup: pIC50 of O=C(c1cc(-c2ccncc2)n(-c2ccc(F)c(F)c2)n1)N1CCC(N2C(=O)OC[C@H]2c2ccccc2)CC1 [Compound 84]
< 4.60

----------
Target: human TRPA1 (Homo sapiens)
Construct: expressed in transfected cells
Assay: Cell-based functional intracellular calcium ([Ca2+]i) assay, Fluo-4/Fluo-8, FlexStation, challenge with reference TRPA1 agonist (FFA, AITC or 4-HNE)
Conditions: HEK293 cells expressing human TRPA1; IC50 class after addition of reference TRPA1 agonist (FFA, AITC or 4-HNE); read-out: human TRPA1-HEK Activity
Protocol: A stable HEK293 cell line that expresses human TRPA1 in an inducible manner was employed in this assay. […] The expression of TRPA1 was induced by including 1 μg/ml doxycycline in the culture medium. […] Fluorescence changes were measured using a fluid handling integrated fluorescence plate reader, FlexStation (Molecular Devices, Sunnyvale, Calif.). […]
pIC50: −log10 of the molar value.
outcome measure: pIC50

                                   compound  outcome_measure  readout_value
0  N#Cc1ccc(-n2nc(C(=O)N3CCC4(CC3)C(=O)NCN4c3ccc(F)cc3)cc2-c2cccnc2)c(C(F)(F)F)c1            pIC50   5.30 to 9.00
1  O=C(c1cc(-c2ccccn2)n(-c2cc(F)c(F)c(F)c2)n1)N1CCC(n2c(=O)[nH]c3ccc(F)c(F)c32)CC1            pIC50   4.60 to 5.30
2  O=C(c1cc(-c2cnccn2)n(-c2ccc(F)c(C(F)(F)F)c2)n1)N1CCC2(CC1)C(=O)NCN2c1ccc(F)cc1            pIC50   5.30 to 9.00

As a next step, examine the compound that follows.
# lookup: pIC50 of "O=C(c1cc(-c2ccncc2)n(-c2ccccc2)n1)N1CCC2(CC1)OCc1ccccc12"
< 4.60

// provenance: patent US9951046B2
